B1: TRIM15 (parent)
chain: QSSGKILLCPLCQEEEQAETPMAP

# Variants of: B1
# Procedure Details: protein stability index of a GFP-peptide fusion (GPS, HEK-293T) (PSI 1-6); higher = more stable;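 further: lentivirally expressed fusions sorted by FACS into six bins by GFP to DsRed ratio, PSI derived from sequencing read proportions per bin multiplied by bin number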
# Test Settings: c terminus: a fixed tail appended
Quick rule: protein stability index of at least 4 means met, below that means not met.

QSSGKILLCPLCQEEGQAETPMAP	not met
QSSGKILLCPLCQEEEQAETKMAP	not met
QSSGKILLCPLCQEEMQAETPMAP	not met
QSSGKILLCPLCQEEEQAETPGAP	met
QSSVKILLCPLCQEEEQAETPMAP	not met
